Test: physchem
Settings: water, pH 10, water, thermodynamic from solid
readoutKind: solubility

molecule="O=c1[nH]cnc2c1ncn2[C@@H]1O[C@H](CO)C[C@@H]1F [Sodium F-ddI Hemihydrate, sodium-2',3'-dideoxy-2'-fluoroinosine]" observedresult="~400 mg/mL"
